System: IL-1β release upon NLRP3 activation in peripheral blood mononuclear cells (PBMC)
Experiment: PBMC IC50 Determination Assay
Format: cell-based
Conditions: Homo sapiens; inhibition of IL-1β release; LPS-primed PBMC stimulated with ATP or nigericin
pIC50: −log10 of the molar value.
value_kind: pIC50

pIC50 recorded for this compound, Cc1cc(NCc2ccc(-c3c(C)cc(C(F)(F)F)cc3O)nn2)no1 [Compound 31] , is > 6.30

pIC50 recorded for this compound, Cc1cc(C(F)(F)F)cc(O)c1-c1ccc(CNC2CCC(=O)N(C)C2)nn1 (centres unmarked) [Compound 111] , is > 6.30

pIC50 recorded for this compound, Cc1cc(C(F)(F)F)cc(O)c1-c1ccc(CN2CCCC2)nn1 [Compound 133] , is > 6.30

pIC50 recorded for this compound, Cc1cc(C(F)(F)F)cc(O)c1-c1ccc(CNCC2CCOCC2)nn1 [Compound 109] , is 5.00 to 5.52

Here is the next item to consider.
pIC50 recorded for this compound, Cc1cc(C(F)(F)F)cc(O)c1-c1ccc(CNCC2CCCO2)nn1 (centres unmarked) [Compound 106] , is 5.52 to 6.00

Numbers sourced from patent US20250115558A1.
